# experiment-notes: Cmax in ICR mouse at 25 mg/kg, po measured upto 24 hrs by HPLC analysis
# Format: ADME, organism-based
# run-conditions: in vivo
# reported Cmax; entries follow
Your answer is read as ng/mL, so omit the unit and give the number.

| smiles-string | Cmax [ng/mL] |
| --- | --- |
| CC1(C)CCC(NN2CCN(c3nc(=O)c4cc(C(F)(F)F)cc([N+](=O)[O-])c4s3)CC2)CC1 | 755 |

Tell me the measured Cmax of `CN(C1CCC(C)(C)CC1)N1CCN(c2nc(=O)c3cc(C(F)(F)F)cc([N+](=O)[O-])c3s2)CC1` , please. 501

---

# reported Tmax; entries follow
# experiment-notes: Tmax in ICR mouse at 25 mg/kg, po measured upto 24 hrs by HPLC analysis
# Format: ADME, organism-based
# run-conditions: in vivo
Kindly write the number and append the unit.

| smiles-string | reported-result |
| --- | --- |
| CC1(C)CCC(NN2CCN(c3nc(=O)c4cc(C(F)(F)F)cc([N+](=O)[O-])c4s3)CC2)CC1 | 15 min |

Consider now this further molecule.
Tell me the measured Tmax of `CN(C1CCC(C)(C)CC1)N1CCN(c2nc(=O)c3cc(C(F)(F)F)cc([N+](=O)[O-])c3s2)CC1` , please. 30 min

---

# reported MRT; entries follow
# experiment-notes: Mean residence time in ICR mouse at 25 mg/kg, po measured upto 24 hrs by HPLC analysis
# Format: ADME, organism-based
# run-conditions: in vivo
Your answer is read as h, so omit the unit and give the number.

| smiles-string | MRT / h |
| --- | --- |
| CN(C1CCC(C)(C)CC1)N1CCN(c2nc(=O)c3cc(C(F)(F)F)cc([N+](=O)[O-])c3s2)CC1 | 3.91 |

Consider now this further molecule.
Tell me the measured MRT of `CC1(C)CCC(NN2CCN(c3nc(=O)c4cc(C(F)(F)F)cc([N+](=O)[O-])c4s3)CC2)CC1` , please. 1.63

---

# reported AUC(0-inf); entries follow
# experiment-notes: AUC(0 to infinity) in ICR mouse at 25 mg/kg, po measured upto 24 hrs by HPLC analysis
# Assay type: ADME, organism-based
# run-conditions: in vivo
Your answer is read as ng·h/mL, so omit the unit and give the number.

| smiles-string | measurement-name | reported-result |
| --- | --- | --- |
| CC1(C)CCC(NN2CCN(c3nc(=O)c4cc(C(F)(F)F)cc([N+](=O)[O-])c4s3)CC2)CC1 | AUC(0-inf) | 971 |

Consider now this further molecule.
Tell me the measured AUC(0-inf) of `CN(C1CCC(C)(C)CC1)N1CCN(c2nc(=O)c3cc(C(F)(F)F)cc([N+](=O)[O-])c3s2)CC1` , please. 1190

---

# experiment-notes: Cytotoxicity against human THP-1 cells incubated for 48 hrs by MTS/PMS assay
# Type: toxicity, cell-based
# reported CC50 at 48 h; entries follow

Some entries whose results are on file:
| compound | measurement-name | reported-result |
| --- | --- | --- |
| CN(C1CCCCC1)N1CCN(c2nc(=O)c3cc(C(F)(F)F)cc([N+](=O)[O-])c3s2)CC1(C)C | CC50 at 48 h | > 64 µg/mL |
| CC1CN(c2nc(=O)c3cc(C(F)(F)F)cc([N+](=O)[O-])c3s2)CCN1N(C)C1CCC(C)(C)CC1 (stereo not drawn) | CC50 at 48 h | > 64 µg/mL |
| CN(C1CCC(=NOC(C)(C)C)CC1)N1CCN(c2nc(=O)c3cc(C(F)(F)F)cc([N+](=O)[O-])c3s2)CC1 (stereo not drawn) | CC50 at 48 h | > 64 µg/mL |
| CN(C1CCC2(CCCCC2)CC1)N1CCN(c2nc(=O)c3cc(C(F)(F)F)cc([N+](=O)[O-])c3s2)CC1 | CC50 at 48 h | 51.9 µg/mL |
| CC1CCC(N(C)N2CCN(c3nc(=O)c4cc(C(F)(F)F)cc([N+](=O)[O-])c4s3)CC2)CC1 (stereo not drawn) | CC50 at 48 h | > 64 µg/mL |
| CON=C1CCC(N(C)N2CCN(c3nc(=O)c4cc(C(F)(F)F)cc([N+](=O)[O-])c4s3)CC2(C)C)CC1 (stereo not drawn) | CC50 at 48 h | 4.91 µg/mL |
| CN(C1CCCCCCC1)N1CCN(c2nc(=O)c3cc(C(F)(F)F)cc([N+](=O)[O-])c3s2)CC1 | CC50 at 48 h | > 64 µg/mL |
| CC1CN(c2nc(=O)c3cc(C(F)(F)F)cc([N+](=O)[O-])c3s2)CCN1N(C)C1CCCCC1 (stereo not drawn) | CC50 at 48 h | > 64 µg/mL |
| CC1(C)CCC(NN2CCN(c3nc(=O)c4cc(C(F)(F)F)cc([N+](=O)[O-])c4s3)CC2)CC1 | CC50 at 48 h | 58.1 µg/mL |
| CC1CCCCC1N(C)N1CCN(c2nc(=O)c3cc(C(F)(F)F)cc([N+](=O)[O-])c3s2)CC1 (stereo not drawn) | CC50 at 48 h | > 64 µg/mL |

Tell me the measured CC50 at 48 h of `O=c1nc(N2CCN(NC3CCCCCCC3)CC2)sc2c([N+](=O)[O-])cc(C(F)(F)F)cc12` , please. 46.9 µg/mL

Tell me the measured CC50 at 48 h of `CN(C1CCCCC1)N1CCN(c2nc(=O)c3cc(C(F)(F)F)cc([N+](=O)[O-])c3s2)CC1` , please. > 64 µg/mL

Tell me the measured CC50 at 48 h of CC1CCC(NN2CCN(c3nc(=O)c4cc(C(F)(F)F)cc([N+](=O)[O-])c4s3)CC2)CC1 (stereo not drawn) , please. > 64 µg/mL
